A collection of compounds and their measured Emax
- Assay System: recombinant human AMPK complex, containing α2β1γ2 (Homo sapiens, UniProt P54646+Q9Y478)
- Construct: hsAMPKα2-552-His, hsAMPKβ1-2-270 and hsAMPKγ-2-569 respectively; hsAMPKβ1-2-270; hsAMPKγ-2-569; His (C); made in house; host or cells: Spodoptera frugiperda Sf21 (baculovirus)
- Sequence (P54646 2-552): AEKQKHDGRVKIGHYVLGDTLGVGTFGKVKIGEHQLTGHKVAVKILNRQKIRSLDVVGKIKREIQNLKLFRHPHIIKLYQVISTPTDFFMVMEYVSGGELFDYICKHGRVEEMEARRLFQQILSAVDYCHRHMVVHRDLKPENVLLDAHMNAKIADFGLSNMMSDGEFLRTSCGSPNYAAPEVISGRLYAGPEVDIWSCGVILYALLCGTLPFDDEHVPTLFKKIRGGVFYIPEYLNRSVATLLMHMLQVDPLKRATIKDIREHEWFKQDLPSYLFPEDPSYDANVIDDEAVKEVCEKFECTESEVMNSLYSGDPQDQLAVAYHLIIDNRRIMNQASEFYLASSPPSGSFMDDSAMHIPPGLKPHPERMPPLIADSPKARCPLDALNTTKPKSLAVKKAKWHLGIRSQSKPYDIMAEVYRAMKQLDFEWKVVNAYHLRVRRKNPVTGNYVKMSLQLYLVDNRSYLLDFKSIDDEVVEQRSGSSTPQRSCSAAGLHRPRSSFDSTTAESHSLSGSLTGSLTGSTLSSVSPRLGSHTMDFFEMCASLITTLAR
- Sequence (Q9Y478 2-270): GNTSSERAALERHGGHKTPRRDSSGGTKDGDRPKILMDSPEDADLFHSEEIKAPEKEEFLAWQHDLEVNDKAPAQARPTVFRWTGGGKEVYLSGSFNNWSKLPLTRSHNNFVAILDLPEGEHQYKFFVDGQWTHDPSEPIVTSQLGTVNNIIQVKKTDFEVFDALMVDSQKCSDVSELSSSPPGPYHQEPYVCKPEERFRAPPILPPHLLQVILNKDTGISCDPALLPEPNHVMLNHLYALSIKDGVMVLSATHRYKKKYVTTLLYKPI
- Sequence (Q9UGJ0 2-569 partner limits assumed): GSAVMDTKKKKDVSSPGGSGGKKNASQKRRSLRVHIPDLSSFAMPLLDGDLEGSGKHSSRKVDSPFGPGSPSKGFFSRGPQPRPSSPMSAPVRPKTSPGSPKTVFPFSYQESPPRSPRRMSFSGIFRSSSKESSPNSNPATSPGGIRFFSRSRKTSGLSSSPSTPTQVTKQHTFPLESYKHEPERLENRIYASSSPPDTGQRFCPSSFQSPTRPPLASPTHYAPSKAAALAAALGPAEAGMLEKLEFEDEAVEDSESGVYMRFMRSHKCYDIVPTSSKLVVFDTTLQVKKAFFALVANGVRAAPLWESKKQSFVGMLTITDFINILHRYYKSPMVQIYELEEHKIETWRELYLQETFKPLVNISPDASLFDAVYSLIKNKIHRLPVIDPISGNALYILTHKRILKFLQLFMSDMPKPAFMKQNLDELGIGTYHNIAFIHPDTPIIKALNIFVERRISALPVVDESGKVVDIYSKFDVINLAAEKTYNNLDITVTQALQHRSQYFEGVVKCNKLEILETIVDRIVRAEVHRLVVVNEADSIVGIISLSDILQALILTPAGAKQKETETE
- Assay Protocol: AMPK in vitro activation assay (HTRF)
- Type: biochemical
- Details: potentiation of AMPK activity as percent over the basal signal (without compound)
Please answer using a numeric value trailed by its unit.

Please review the entries below; each comes with its answer.
Cc1cc(C(O)=C2C(=O)Nc3cc(Cl)c(-c4ccc(C(O)(CO)CCl)cc4)cc32)on1 (centres unmarked) :: 99%
Cc1ccc(C(O)=C2C(=O)Nc3cc(Cl)c(-c4ccc(C5(CO)CC5)cc4)cc32)s1 :: 272%
O=C1Nc2cc(Cl)c(-c3ccc4ccccc4c3)cc2C1=C(O)c1cccc(F)c1 :: 95%
Cc1cc(C(O)=C2C(=O)Nc3cc(Cl)c(-c4ccc(F)cc4)cc32)on1 :: 108%
O=C1Nc2cc(Cl)c(-c3ccc(C4CC(O)C4)cc3)cc2C1=C(O)c1cc(F)cc(F)c1 (centres unmarked) :: 155%
CN(C)c1ccc(-c2cc3c(cc2Cl)NC(=O)C3=C(O)c2cccc(C(=O)O)c2)cc1 :: 124%
Cc1cc(C(O)=C2C(=O)Nc3cc(Cl)c(-c4ccc(N5CCOCC5)cc4)cc32)no1 :: 150%

Now turn to the next compound.
What value of measured Emax is listed for "N#Cc1cccc(C(O)=C2C(=O)Nc3cc(Cl)c(-c4ccc(N5CCOCC5)cc4)cc32)c1" ? 135%

----------
A collection of compounds and their measured EC50
- Assay System: recombinant human AMPK complex, containing α2β1γ2 (Homo sapiens, UniProt P54646+Q9Y478)
- Construct: hsAMPKα2-552-His, hsAMPKβ1-2-270 and hsAMPKγ-2-569 respectively; hsAMPKβ1-2-270; hsAMPKγ-2-569; His (C)
- Assay Protocol: AMPK in vitro activation assay (HTRF)
- Details: HTRF, recombinant human α2β1γ2 AMPK, 200 μM ATP, biotinylated ACC-CREBp peptide; repeat determinations on separate lines

Please review the entries below; each comes with its answer.
Cc1ncc(C(O)=C2C(=O)Nc3cc(Cl)c(-c4ccc(C5(CO)CC5)cc4)cc32)s1 :: 1 nM
O=C1Nc2cc(Cl)c(-c3ccc(C4CC(O)C4)cc3)cc2C1=C(O)c1ccc(F)cc1F (stereo not shown) :: 60 nM
COc1cc(F)c(C(O)=C2C(=O)Nc3cc(Cl)c(-c4ccc(C5CC(O)C5)cc4)cc32)cc1F (stereo not shown) :: 10 nM

Now turn to the next compound.
State its EC50 on recombinant human AMPK complex, containing α2β1γ2 (Homo sapiens, UniProt P54646+Q9Y478): "COc1cc(C(O)=C2C(=O)Nc3cc(F)c(-c4ccc(C5(CO)CC5)cc4)cc32)on1" 0.5 nM

----------
- Assay System: recombinant human AMPK complex, containing α2β1γ2 (Homo sapiens, UniProt P54646+Q9Y478)
- Construct: hsAMPKα2-552-His, hsAMPKβ1-2-270 and hsAMPKγ-2-569 respectively; hsAMPKβ1-2-270; hsAMPKγ-2-569; His (C)
- Assay Protocol: AMPK in vitro activation assay (HTRF)
- Details: HTRF, recombinant human α2β1γ2 AMPK, 200 μM ATP, biotinylated ACC-CREBp peptide; repeat determinations on separate lines
Counter-ions that a name gives are not always drawn.
A collection of compounds and their measured pEC50
Bear in mind: pEC50 is minus log10 of a mol/L concentration; give just that figure.

Please review the entries below; each comes with its answer.
CC(=O)NCCOc1ccc(-c2cc3c(cc2Cl)NC(=O)C3=C(O)c2cc(C)no2)cc1 :: 7.82
COc1cc(C(O)=C2C(=O)Nc3cc(Cl)c(-c4ccc(C5CCNC5)cc4)cc32)on1 (stereo not shown) [Compound 134, hydrochloride] :: 8.05
O=C1Nc2cc(Cl)c(-c3ccc(C4(CO)CC4)cc3)cc2C1=C(O)c1ccc(Cl)s1 :: 8.05

Now turn to the next compound.
What value of measured pEC50 is listed for "COc1cc(C(O)=C2C(=O)Nc3cc(Cl)c(-c4ccc(N(C)C)nc4)cc32)on1" ? 7.06

----------
A collection of compounds and their measured Emax
- Assay System: recombinant human AMPK complex, containing α2β1γ2 (Homo sapiens, UniProt P54646+Q9Y478)
- Construct: hsAMPKα2-552-His, hsAMPKβ1-2-270 and hsAMPKγ-2-569 respectively; hsAMPKβ1-2-270; hsAMPKγ-2-569; His (C); made in house; host or cells: Spodoptera frugiperda Sf21 (baculovirus)
- Assay Protocol: AMPK in vitro activation assay (HTRF)
- Type: biochemical
- Details: potentiation of AMPK activity as percent over the basal signal (without compound)
Counter-ions that a name gives are not always drawn.
Quick reminder: number only, in %, skip the unit.

What value of measured Emax is listed for O=C1Nc2cc(Cl)c(-c3ccc(N4CCOCC4)cc3)cc2C1=C(O)c1cccc(O)c1 [Compound 3] ? 138

What value of measured Emax is listed for Cc1cc(C(O)=C2C(=O)Nc3cc(Cl)c(-c4ccc(C5CCN(C)CC5)cc4)cc32)on1 [Compound 78, hydrochloride] ? 141

What value of measured Emax is listed for COc1cccc(-c2ccc(-c3cc4c(cc3Cl)NC(=O)C4=C(O)c3cc(C)ns3)cc2)c1O [Compound 42] ? 132

What value of measured Emax is listed for O=C1Nc2cc(Cl)c(-c3ccc(C4(CO)CC4)cc3)cc2C1=C(O)c1cccc(F)c1 [Compound 27] ? 129

----------
- Assay System: recombinant human AMPK complex, containing α2β1γ2 (Homo sapiens, UniProt P54646+Q9Y478)
- Construct: hsAMPKα2-552-His, hsAMPKβ1-2-270 and hsAMPKγ-2-569 respectively; hsAMPKβ1-2-270; hsAMPKγ-2-569; His (C)
- Assay Protocol: AMPK in vitro activation assay (HTRF)
- Details: HTRF, recombinant human α2β1γ2 AMPK, 200 μM ATP, biotinylated ACC-CREBp peptide; repeat determinations on separate lines
Where a name gives a salt, the structure may show the parent alone.
Entries whose EC50 is below 20 nM take Met; entries at or above 20 nM take Not met.

Reference set, count: 3
COc1cc(C(O)=C2C(=O)Nc3cc(Cl)c(-c4ccc(N(C)C)c(F)c4)cc32)on1 [Compound 147] :: Met
O=C1Nc2cc(Cl)c(-c3ccc(C4CC4)cc3)cc2C1=C(O)c1cccc(F)c1 [Compound 26] :: Not met
COc1cc(C(O)=C2C(=O)Nc3cc(Cl)c(-c4ccc(OCc5cccnc5)cc4)cc32)on1 [Compound 100] :: Not met

Say whether its EC50 is strictly beneath 20 nM. Entry: COc1c(F)cc(C(O)=C2C(=O)Nc3cc(Cl)c(-c4ccc(N5CCOCC5)cc4)cc32)cc1Cl [Compound 97] Not met

Say whether its EC50 is strictly beneath 20 nM. Entry: O=C1Nc2cc(Cl)c(-c3ccc(N4CCOCC4)cc3)cc2C1=C(O)c1cccc(C(=O)O)c1 [Compound 4] Met

Say whether its EC50 is strictly beneath 20 nM. Entry: COc1ccc(-c2cc3c(cc2Cl)NC(=O)C3=C(O)c2cc(C)no2)cc1F [Compound 55] Not met

Say whether its EC50 is strictly beneath 20 nM. Entry: COc1cnccc1C(O)=C1C(=O)Nc2cc(Cl)c(-c3ccc(C4(CO)CC4)cc3)cc21 [Compound 175] Met

Say whether its EC50 is strictly beneath 20 nM. Entry: Cc1cc(C(O)=C2C(=O)Nc3cc(Cl)c(-c4ccc(C5(CO)CC5)cc4)cc32)sn1 [Compound 23] Met

Say whether its EC50 is strictly beneath 20 nM. Entry: Cc1cc(C(O)=C2C(=O)Nc3cc(Cl)c(-c4ccc(OCCN5CCOCC5)cc4)cc32)on1 [Compound 82, hydrochloride] Not met

Say whether its EC50 is strictly beneath 20 nM. Entry: O=C1Nc2cc(Cl)c(-c3ccc(C4(CO)CC4)cc3)cc2C1=C(O)c1cc2cccnc2o1 [Compound 157] Met

Say whether its EC50 is strictly beneath 20 nM. Entry: COc1cc(C(O)=C2C(=O)Nc3cc(Cl)c(-c4cnc(N(C)C)nc4)cc32)on1 [Compound 145] Not met

----------
A collection of molecules and their measured Emax
- Assay System: recombinant human AMPK complex, containing α2β1γ2 (Homo sapiens, UniProt P54646+Q9Y478)
- Construct: hsAMPKα2-552-His, hsAMPKβ1-2-270 and hsAMPKγ-2-569 respectively; hsAMPKβ1-2-270; hsAMPKγ-2-569; His (C); made in house; host or cells: Spodoptera frugiperda Sf21 (baculovirus)
- Assay Protocol: AMPK in vitro activation assay (HTRF)
- Format: biochemical
- Details: potentiation of AMPK activity as percent over the basal signal (without compound)
- Description: The recombinant human AMPK complex, containing α2β1γ2 was obtained from baculovirus expression system and generated by cotransfection in Spodoptera frugiperda 21 (Sf21). […] A homogeneous time-resolved fluorescence (HTRF) assay was used (Li et al, Anal. Biochem. (2003) 321, 151-156) to identify compounds with stimulating activity for the recombinant human AMPK. […] The fluorescence signal was measured using an Envision multireader (Perkin Elmer). […]
Where a name gives a salt, the structure may show the parent alone.
Quick reminder: number only, in %, skip the unit.

Please review the entries below; each comes with its answer.
CC(C)(C)c1cc(C(O)=C2C(=O)Nc3cc(Cl)c(-c4ccc(C5CC(O)C5)cc4)cc32)on1 (stereo not drawn) :: 194
COc1cc(C(O)=C2C(=O)Nc3cc(Cl)c(-c4ccc(OC5CCN(C)CC5)cc4)cc32)on1 [Compound 124, hydrochloride] :: 231

What value of measured Emax is listed for "O=C1Nc2cc(Cl)c(-c3ccc(C4(CO)CC4)cc3)cc2C1=C(O)c1cc2cc(Cl)ccc2o1" ? 181
